Where these numbers come from: paper PMC7283271

MEASUREMENT TARGET: CxD7L2 (Culex quinquefasciatus, UniProt B0X6Z1)
Construct: gene D7L2; full-length mature protein, C-terminal 6x-His, HEK293
Sequence (B0X6Z1 21-313 limits assumed): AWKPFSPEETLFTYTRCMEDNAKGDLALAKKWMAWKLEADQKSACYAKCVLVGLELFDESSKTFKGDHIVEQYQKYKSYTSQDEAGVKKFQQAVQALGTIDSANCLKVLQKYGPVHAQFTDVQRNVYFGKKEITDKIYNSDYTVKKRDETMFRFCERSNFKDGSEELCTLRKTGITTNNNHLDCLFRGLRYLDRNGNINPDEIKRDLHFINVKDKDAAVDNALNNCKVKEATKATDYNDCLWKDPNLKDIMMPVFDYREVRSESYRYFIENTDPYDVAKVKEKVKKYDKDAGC
EXPERIMENTAL PROTOCOL: ITC
Format: binding
QUANTITY: Kd (nM)
Reply with just the number (in nM).

CCCCC/C=C\C\C=C/C=C/C=C/[C@@H](SC[C@H](N)C(=O)O)[C@@H](O)CCCC(=O)O [LTE4]
159
NCCc1c[nH]cn1 [Histamine]
383
NCCc1c[nH]c2ccc(O)cc12 [Serotonin]
7.46

Q: Which Kd reading was recorded for the compound CCCCC/C=C\C\C=C/C=C/C=C/[C@@H](SC[C@H](NC(=O)CC[C@H](N)C(=O)O)C(=O)NCC(=O)O)[C@@H](O)CCCC(=O)O [LTC4] ?
A: 152

* * *

MEASUREMENT TARGET: UniProt:A0A1S4K3K8
Sequence (A0A1S4K3K8 17-311 limits assumed): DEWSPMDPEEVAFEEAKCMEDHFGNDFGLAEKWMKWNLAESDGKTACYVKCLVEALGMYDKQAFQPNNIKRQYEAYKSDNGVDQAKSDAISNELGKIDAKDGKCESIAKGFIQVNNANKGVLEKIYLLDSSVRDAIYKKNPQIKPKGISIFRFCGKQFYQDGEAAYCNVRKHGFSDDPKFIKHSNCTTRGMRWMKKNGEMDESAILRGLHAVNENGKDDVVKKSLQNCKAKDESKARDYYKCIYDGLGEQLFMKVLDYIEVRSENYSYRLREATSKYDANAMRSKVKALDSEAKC
EXPERIMENTAL PROTOCOL: ITC
Assay type: binding
Parameters: gene D7L1; mature protein, C-terminal 6x-His, HEK293
QUANTITY: pKd
Expect pKd as a plain number equal to -log10 of the molar concentration.

Nc1ncnc2c1ncn2[C@@H]1O[C@H](COP(=O)(O)OP(=O)(O)OP(=O)(O)O)[C@@H](O)[C@H]1O
7.51

Now turn to the next molecule.
Q: For the molecule shown here, "Nc1ncnc2c1ncn2[C@@H]1O[C@H](COP(=O)(O)O)[C@@H](O)[C@H]1O" , give the reported pKd.
A: 7.11
